B1: CD2-associated protein, residues 271 to 331; numbered along this chain, Q9Y5K6 (parent)
chain: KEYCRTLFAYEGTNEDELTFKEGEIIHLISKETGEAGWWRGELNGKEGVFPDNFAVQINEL

# Variants of: B1
# PROTOCOL_DESCRIPTION: abundance fitness (aPCA) (normalised: wild type 0, dead -1); higher = more abundant; growth selection in yeast, the domain comes from the species named
# PARTICULARS: Homo sapiens
PROPERTY_NAME: abundance fitness

1. H27C 0.013
2. A9C -0.129
3. E15N -0.184
4. A55P -0.738
5. R5Q -0.37
6. E11V -0.157
7. R5P -0.978
8. E42M -0.02
9. V56W -0.434
10. T13L -0.082
11. L18M -0.335
12. N44I -0.787
13. Y10V -0.567
14. W39V -0.519
15. I58N -0.378
16. L18C -0.913
17. P51D -0.487
18. D16P -0.738
19. I29L -0.006
20. W38R -0.216
21. G37D -0.617
22. L61R -0.049
23. E11D -0.122
24. L43N -0.468
25. D52I 0.077
26. K31V -0.313
27. W38I -0.361
28. S30Q -0.36
29. K46Q -0.265
30. V56G -0.173
31. L28E -0.738
32. N14G -0.087
33. L28Y -0.702
34. Y3F 0.001
35. A36E -0.13
36. K46S -0.338
37. E32K -0.044
38. A36I -0.193
39. T19A -0.249
40. E15V -0.329
41. N44Y -0.363
42. G37T -0.416
43. L28S -0.712
44. L28W -0.871
45. N14A -0.023
46. S30G -0.328
